Attribution: patent US8580556B2

tested on: tetA promoter (PtetA)-lacZ reporter in E. coli KM3; format: cell-based; settings: Table 10; no inducer; 48 hours at 30° C.
For each record, write down the corresponding relative β-galactosidase activity, No inducer.
Lab note: jot down the number only; don't add units.

# return recorded relative β-galactosidase activity, No inducer for entry L1-22: library L1 hit, sulfonylurea-responsive TetR(B) variant, SEQ ID NO: 7 (protein, Sulfornylurea responsive repressor L1-22) MGSRLDKSKVINSALELLNEVGIEGLTTRKLAQKLGVEQPTLYWHVKNKRALLDALAIEMMDRHHTHFCPLEGESWQDFLRNTAKSYRCALLSHRDGAKVCLGTAITEKQYETKENNLAFLCQQGFSLENALYARQAVRVFTLGCVLFDQEMQVAKEERETPTTDSMPPLLRQASELLDHQGAEPAFLFGLELIICGLEKQLKSESGS
0.2

# return recorded relative β-galactosidase activity, No inducer for entry L1-9: library L1 hit, sulfonylurea-responsive TetR(B) variant, parent of L2 and L4 (protein, Sulfonylurea responsive repressor L1-09) MGSRLDKSKVINSALELLNEVGIEGLTTRKLAQKLGVEQPTLYWHVKNKRALLDALAIEMLDRHATHFCPLEGESWQDFLRNNAKSMRCALLSHRDGAKVCLGTGFTEKQYETAENSLAFLCQQGFSLENALYAMQAVCIFTLGCVLLDQELQVAKEERETPTTDSMPPLLRQALELKDHQGAEPAFLFGLELIICGLEKQLKCESGS
0.9

# return recorded relative β-galactosidase activity, No inducer for entry L1-29: library L1 hit, sulfonylurea-responsive TetR(B) variant, SEQ ID NO: 10 (protein, Sulfonylurea responsive repressor L1-29) MGSRLDKSKVINSALELLNEVGIEGLTTRKLAQKLGVEQPTLYWHVKNKRALLDALAIEMMDRHQTHFCPLEGESWQDFLRNTAKSMRCALLSHRDGAKVWLGTRWTEKQYETPENMLAFLCQQGFSLENALYAWSAVCNFTLGCVLSDQERQVAKEERETPTTDSMPPLLRQAWELSDHQGAEPAFLFGLELIICGLEKQLKCESGS
0.1
